Property: pIC50; scope: individual compounds
tested on: 439559-082-T-J2-PDC spheroids viability; assay: Anticancer human tumor 439559-082-T-J2-PDC patient-derived colon adenocarcinoma cell line growth inhibition [GQUAD]; conditions: curve of first compound; second compound 0.0316 µM;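 note: spheroids exposed to the agents for 7 days before readout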
API: returns pIC50 as number; meaning -log10 of concentration in mol/L.

// below: answered compounds
compound	pIC50
CC(=O)O[C@H]1C(=O)[C@@]2(C)[C@H]([C@H](OC(=O)c3ccccc3)[C@]3(O)C[C@H](OC(=O)[C@H](O)[C@@H](NC(=O)c4ccccc4)c4ccccc4)C(C)=C1C3(C)C)[C@]1(OC(C)=O)CO[C@@H]1C[C@@H]2O + CN(C)c1ccc(Nc2c3ccc(NC(=O)CCN4CCCC4)cc3nc3cc(NC(=O)CCN4CCCC4)ccc23)cc1	5.69
C=CCn1c(=O)c2cnc(Nc3ccc(N4CCN(C)CC4)cc3)nc2n1-c1cccc(C(C)(C)O)n1 + Cc1[nH]c2ccc(F)cc2c1-c1nc2c3cccnc3c3ncccc3c2[nH]1	5.10
O=C(NO)c1cnc(N2CCN(S(=O)(=O)c3ccc4ccccc4c3)CC2)nc1 + Cc1[nH]c2ccc(F)cc2c1-c1nc2c3cccnc3c3ncccc3c2[nH]1	5.68

# CC1COCCN1c1cc(C2(O)CC3CCC(C2)O3)c2cnn(-c3ccn[nH]3)c2n1 (stereo not given) + CN(C)c1ccc(Nc2c3ccc(NC(=O)CCN4CCCC4)cc3nc3cc(NC(=O)CCN4CCCC4)ccc23)cc1 with 439559-082-T-J2-PDC spheroids viability: pIC50 is 6.01

# Nc1ccn(C2OC(CO)C(O)C2(F)F)c(=O)n1 (stereo not given) + CN(C)c1ccc(Nc2c3ccc(NC(=O)CCN4CCCC4)cc3nc3cc(NC(=O)CCN4CCCC4)ccc23)cc1 with 439559-082-T-J2-PDC spheroids viability: pIC50 is 6.58

# O=C(NO)c1cnc(N2CCN(S(=O)(=O)c3ccc4ccccc4c3)CC2)nc1 + Cc1cnc(CNC(=O)c2c(=O)c3ccc(N4CCCN(C)CC4)nc3n3c2sc2ccccc23)cn1 with 439559-082-T-J2-PDC spheroids viability: pIC50 is 6.26

# COc1cccc2c1C(=O)c1c(O)c3c(c(O)c1C2=O)CC(O)(C(=O)CO)CC3OC1CC(N)C(O)C(C)O1 (stereo not given) + CN(C)c1ccc(Nc2c3ccc(NC(=O)CCN4CCCC4)cc3nc3cc(NC(=O)CCN4CCCC4)ccc23)cc1 with 439559-082-T-J2-PDC spheroids viability: pIC50 is 5.24

# CC1COCCN1c1cc(-c2ccnn2C)c2ccnc(-c3ccn[nH]3)c2n1 (stereo not given) + CN(C)c1ccc(Nc2c3ccc(NC(=O)CCN4CCCC4)cc3nc3cc(NC(=O)CCN4CCCC4)ccc23)cc1 with 439559-082-T-J2-PDC spheroids viability: pIC50 is 6.63

# CC1COCCN1c1cc(C2(O)CC3CCC(C2)O3)c2cnn(-c3ccn[nH]3)c2n1 (stereo not given) + Cc1[nH]c2ccc(F)cc2c1-c1nc2c3cccnc3c3ncccc3c2[nH]1 with 439559-082-T-J2-PDC spheroids viability: pIC50 is 5.77
